# subjectOfTest: T1, IL10Rα/IL2Rγ receptor (human) (UniProt Q13651)
# T1 sequence (looked up) 1: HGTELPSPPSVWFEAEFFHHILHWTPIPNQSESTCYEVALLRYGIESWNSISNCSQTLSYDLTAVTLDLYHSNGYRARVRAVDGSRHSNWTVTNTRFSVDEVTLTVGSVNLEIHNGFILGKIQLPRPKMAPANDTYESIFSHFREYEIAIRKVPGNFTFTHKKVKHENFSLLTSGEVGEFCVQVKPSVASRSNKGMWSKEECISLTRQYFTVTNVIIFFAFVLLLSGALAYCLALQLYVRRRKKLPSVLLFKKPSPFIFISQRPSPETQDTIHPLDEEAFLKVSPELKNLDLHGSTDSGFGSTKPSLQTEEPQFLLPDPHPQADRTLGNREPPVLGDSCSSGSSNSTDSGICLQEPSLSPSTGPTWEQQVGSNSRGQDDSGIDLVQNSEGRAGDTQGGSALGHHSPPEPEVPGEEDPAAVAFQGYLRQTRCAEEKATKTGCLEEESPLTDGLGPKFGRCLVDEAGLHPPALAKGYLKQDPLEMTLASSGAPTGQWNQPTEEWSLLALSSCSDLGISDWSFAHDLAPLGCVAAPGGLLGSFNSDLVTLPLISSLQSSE
# T1 sequence (looked up) 2: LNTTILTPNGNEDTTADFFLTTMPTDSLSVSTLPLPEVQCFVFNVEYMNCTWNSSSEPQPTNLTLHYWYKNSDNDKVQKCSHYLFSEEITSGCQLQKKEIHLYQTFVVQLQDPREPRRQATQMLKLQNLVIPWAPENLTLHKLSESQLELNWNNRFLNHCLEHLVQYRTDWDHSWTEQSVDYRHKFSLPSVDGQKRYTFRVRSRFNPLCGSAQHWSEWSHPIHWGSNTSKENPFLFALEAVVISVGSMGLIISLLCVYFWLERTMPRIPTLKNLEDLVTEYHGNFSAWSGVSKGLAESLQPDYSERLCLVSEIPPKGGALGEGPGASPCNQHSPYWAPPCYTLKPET
# measurementProtocol: cell-based or functional assay
I'd appreciate it if you could supply IFNγ secretion, CD8 T cells, at 10 µM values for the items below.
Return type: number; implicit unit pg/mL.

Request: Param item = hIL10Ra_VHH14 - hIL2Rg_VHH19, linker GGSGGS, tag his (bispecific antibody, not shown: small tags and cut ends) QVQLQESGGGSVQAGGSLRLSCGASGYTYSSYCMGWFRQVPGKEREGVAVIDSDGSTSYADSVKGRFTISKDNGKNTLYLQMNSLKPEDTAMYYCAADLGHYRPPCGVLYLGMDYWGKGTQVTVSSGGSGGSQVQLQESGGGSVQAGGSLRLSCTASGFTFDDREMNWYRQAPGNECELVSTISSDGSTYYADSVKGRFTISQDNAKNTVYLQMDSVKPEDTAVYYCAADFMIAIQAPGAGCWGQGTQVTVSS ; retrieve measured IFNγ secretion, CD8 T cells, at 10 µM.
Response: 149000

Request: Moving on to the next binder: hIL10Ra_VHH14 - hIL2Rg_VHH19, linker GGGS, tag his (bispecific antibody, not shown: small tags and cut ends) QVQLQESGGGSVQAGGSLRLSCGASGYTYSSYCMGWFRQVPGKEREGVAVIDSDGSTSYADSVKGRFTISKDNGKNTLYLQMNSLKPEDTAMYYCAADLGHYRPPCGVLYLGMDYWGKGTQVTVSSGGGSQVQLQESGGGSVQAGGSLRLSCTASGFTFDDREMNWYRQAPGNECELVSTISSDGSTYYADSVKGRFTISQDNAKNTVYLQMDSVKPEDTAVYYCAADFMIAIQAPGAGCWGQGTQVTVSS
Response: 134000

Request: Moving on to the next binder: hIL10Ra_VHH14 - hIL2Rg_VHH19, linker GGGS, tag Fc (bispecific antibody, not shown: a dimerising Fc or GST) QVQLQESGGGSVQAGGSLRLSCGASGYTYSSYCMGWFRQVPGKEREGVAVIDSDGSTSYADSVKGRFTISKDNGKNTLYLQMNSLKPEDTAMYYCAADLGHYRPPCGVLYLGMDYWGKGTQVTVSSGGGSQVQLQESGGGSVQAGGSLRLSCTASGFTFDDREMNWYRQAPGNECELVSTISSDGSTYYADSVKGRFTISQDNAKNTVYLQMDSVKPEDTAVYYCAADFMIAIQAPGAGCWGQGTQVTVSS
Response: 157000

Request: Moving on to the next binder: hIL10Ra_VHH14 - hIL2Rg_VHH19, No linker, tag his (bispecific antibody, not shown: small tags and cut ends) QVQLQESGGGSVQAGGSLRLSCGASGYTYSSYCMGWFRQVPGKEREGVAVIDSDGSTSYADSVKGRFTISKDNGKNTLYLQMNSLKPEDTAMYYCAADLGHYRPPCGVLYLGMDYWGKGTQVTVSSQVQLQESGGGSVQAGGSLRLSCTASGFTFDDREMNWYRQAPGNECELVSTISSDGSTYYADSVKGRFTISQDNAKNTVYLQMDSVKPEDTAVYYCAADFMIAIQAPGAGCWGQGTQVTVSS
Response: 131000

Request: Moving on to the next binder: hIL10Ra_VHH14 - hIL2Rg_VHH19, linker …, tag his (bispecific antibody, not shown: small tags and cut ends) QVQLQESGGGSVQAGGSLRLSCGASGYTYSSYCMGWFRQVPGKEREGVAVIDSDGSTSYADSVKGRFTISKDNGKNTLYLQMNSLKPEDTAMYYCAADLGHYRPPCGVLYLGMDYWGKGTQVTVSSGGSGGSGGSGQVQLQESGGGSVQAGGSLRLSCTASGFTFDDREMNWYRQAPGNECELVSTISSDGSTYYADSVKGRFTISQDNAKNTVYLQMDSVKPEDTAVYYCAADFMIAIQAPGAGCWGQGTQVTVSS
Response: 154000

Request: Moving on to the next binder: hIL10Ra_VHH14 - hIL2Rg_VHH19, linker GGGSGGGS, tag his (bispecific antibody, not shown: small tags and cut ends) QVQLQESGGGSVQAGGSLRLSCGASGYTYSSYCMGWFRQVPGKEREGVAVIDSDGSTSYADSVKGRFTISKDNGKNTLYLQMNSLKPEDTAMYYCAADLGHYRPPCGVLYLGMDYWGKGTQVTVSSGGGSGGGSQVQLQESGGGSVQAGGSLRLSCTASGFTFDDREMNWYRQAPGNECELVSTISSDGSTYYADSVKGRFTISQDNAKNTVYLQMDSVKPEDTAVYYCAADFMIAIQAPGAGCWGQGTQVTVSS
Response: 143000

Source: patent US20250163162A1
